# assayProtocol: in vivo
# conditionInfo: male, Sprague-Dawley, rat, po, 50 mg/kg

molecule | MRT / h
CC(=O)Nc1ccc(NC(=O)c2ccc(C(C)=O)o2)cc1 [Compound 25a] | 5.4

====

# assayProtocol: Pharmacokinetic study in rats (plasma, LC-MS/MS, NCA)
# conditionInfo: male, Sprague-Dawley, rat, plasma, po, 50 mg/kg, Mean plasma concentration, rats, 0.167 h, single p.o. 50 mg/kg

compound | units | concentration at 0.167 h
CC(=O)Nc1ccc(NC(=O)c2ccc(C(C)=O)o2)cc1 [Compound 25a] | ng/mL | 380

====

# assayProtocol: in vivo
# conditionInfo: male, Sprague-Dawley, rat, po, 100 mg/kg

compound | units | AUC(0-t)
CC(=O)Nc1ccc(NC(=O)c2ccc(C(C)=O)o2)cc1 [Compound 25a] | ng·h/mL | 6920

====

# assayProtocol: Pharmacokinetic study in rats (plasma, LC-MS/MS, NCA)
# conditionInfo: male, Sprague-Dawley, rat, plasma, po, 25 mg/kg, CL/F, rats, single p.o. 25 mg/kg

compound | CL/F
CC(=O)Nc1ccc(NC(=O)c2ccc(C(C)=O)o2)cc1 [Compound 25a] | 165 mL/min/kg
